- ASSAY SYSTEM: Cytochrome P450 2C9 (Homo sapiens) (UniProt P11712)
- Sequence (P11712 whole entry, looked up): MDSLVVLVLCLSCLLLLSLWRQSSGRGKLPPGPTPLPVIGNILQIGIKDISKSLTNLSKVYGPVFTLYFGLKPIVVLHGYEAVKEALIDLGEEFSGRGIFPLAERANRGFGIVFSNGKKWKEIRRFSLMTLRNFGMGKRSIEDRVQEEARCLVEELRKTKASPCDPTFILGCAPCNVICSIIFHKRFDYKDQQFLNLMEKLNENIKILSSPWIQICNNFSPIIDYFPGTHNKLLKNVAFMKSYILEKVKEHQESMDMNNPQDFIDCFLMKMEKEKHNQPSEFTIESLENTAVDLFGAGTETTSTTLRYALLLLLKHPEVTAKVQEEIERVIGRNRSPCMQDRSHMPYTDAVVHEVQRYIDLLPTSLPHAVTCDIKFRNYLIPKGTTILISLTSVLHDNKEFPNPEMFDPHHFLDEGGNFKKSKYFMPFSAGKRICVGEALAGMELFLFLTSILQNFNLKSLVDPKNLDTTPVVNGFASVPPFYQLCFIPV
- TEST DETAILS: Cytochrome panel assay with activity outcomes
- CONDITION PARAMETERS: recombinant CYP, pro-luciferin dealkylation, luminescence, p450-cyp2c9; series mostly up to 57.1 µM
Out of some 16,000 compounds screened, about 4,000 (25%) were called active. Roughly 26% stayed inconclusive and do not appear here. Only a sample is shown.
READOUT LABEL: AC50

Cn1cccc1C(=O)N1CCC2(CCN(Cc3ccccc3)CC2)CC1 = inactive
FC(F)Sc1ccc(N=C2NN=C(c3ccc4c(c3)OCCO4)CS2)cc1 = 22.4 µM (active)
O=C(c1ccco1)N1CCC2(CCN(Cc3ccccc3)CC2)CC1 = inactive
Cn1cccc1C(=O)N1CCC2(CC1)CN(C(=O)Nc1ccccc1)C2 = inactive
COc1ccc(-c2noc(C3CCCN(C(=O)c4ccccc4OC)C3)n2)cc1OC (centres undefined) = 11.2 µM (active)

# compound C=C(CC1([C@@H](NP(=O)(c2ccccc2)c2ccccc2)[C@H]2C[C@@H]2CCCC)CC1)c1ccccc1 ; its AC50 = 10 µM (active)

# compound COC(=O)c1ccc(C(NC(=O)c2ccco2)[C@]2(C)C[C@H]2C2CCCCC2)cc1 (some centres undefined) ; its AC50 = 10 µM (active)

# compound CCCCCCC(C)n1cc(C(C)=O)c(=O)[nH]c1=O (centres undefined) ; its AC50 = inactive

# compound CCS(=O)(=O)N1CCC(C(=O)NCC2CCCO2)CC1 (centres undefined) ; its AC50 = inactive

# compound CCCC[C@@H]1C[C@H]1C(NC(=O)c1ccc(-c2ccccc2)cc1)c1ccc(-c2ccccc2)cc1 (some centres undefined) ; its AC50 = inactive

# compound Cn1cccc1C(=O)N1CCC2(CCCN(Cc3ccncc3)C2)CC1 ; its AC50 = 1.58 µM (active)

# compound CCOC(=O)C1CCCN(C(=O)CSCc2ccccc2)C1 (centres undefined) ; its AC50 = 10 µM (active)
